Test: Thermo Scientific Acclaim RSLC 120 C18, 100 × 2.1 mm, 2.2 µm, 30 °C; A: 90% water + 10% methanol + 0.01% formic acid + 5 mM ammonium formate; B: methanol + 0.01% formic acid + 5 mM ammonium formate; gradient (min/%B) 0.1/1 3/39 14/99.9 16/99.9
Settings: stereoisomer not certain
PARAMETER: LC retention time (min)
Answers are plain numbers, in min.

Record excerpt, results attached:
{"columns": ["COMPOUND", "LC retention time (min)"],
 "data": [
  ["CCCC(C)(COC(N)=O)COC(N)=O", 5.94],
  ["CN1CCN(C(c2ccccc2)c2ccccc2)CC1", 6.94],
  ["CCCCCn1cc(C(=O)c2cccc3ccccc23)c2ccc(O)cc21", 11.2]
]}

Go through the items and report each one's LC retention time.
1. CCOP(=O)(OCC)Oc1cc(C)nc(C(C)C)n1
2. CSC(C)=NOC(=O)N(C)SN(C)C(=O)ON=C(C)SC
3. Nc1nc2c(ncn2COCCO)c(=O)[nH]1
4. CCOC(=O)C(CCc1ccccc1)NC(C)C(=O)N1Cc2ccccc2CC1C(=O)O (stereo not given)
5. CC1C(c2ccccc2)OCCN1C (stereo not given)

8.65
7.64
2.34
9.03
4.06

Go through the items and report each one's LC retention time.
1. CCCNC(C)Cc1ccccc1 (stereo not given)
2. CC(C)NCC(O)c1ccc(N)c(C#N)c1 (stereo not given)
3. CCOP(=S)(OCC)Oc1cc(C)nc(C(C)C)n1
4. c1ccc2[nH]c(-c3cscn3)nc2c1
5. CNC(C)C(O)c1ccc(O)cc1 (stereo not given)

4.83
2.99
11
6.15
2.05

----------
Experiment: Thermo Scientific Acclaim RSLC 120 C18, 100 × 2.1 mm, 2.2 µm, 30 °C; A: 90% water + 10% methanol + 0.01% formic acid + 5 mM ammonium formate; B: methanol + 0.01% formic acid + 5 mM ammonium formate; gradient (min/%B) 0.1/1 3/39 14/99.9 16/99.9
Conditions: stereoisomer not certain
PARAMETER: LC retention time (min)
One number for each entry, in min.

Record excerpt, results attached:
{"columns": ["COMPOUND", "LC retention time / min"],
 "data": [
  ["CN1CCC(=C2c3ccccc3C=Cc3ccccc32)CC1", 7.89],
  ["CC(CC(C#N)(c1ccccc1)C(C)C)N(C)C (configuration not stated)", 5.96],
  ["CNCCC(Oc1ccccc1C)c1ccccc1 (configuration not stated)", 7.63],
  ["CNC(=C[N+](=O)[O-])NCCSCc1ccc(CN(C)C)o1", 3.14],
  ["O=C(Oc1cccc2cccnc12)c1cn(CC2CCCCC2)c2ccccc12", 12.4]
]}

Go through the items and report each one's LC retention time.
1. Cc1cc(C(C)(C)C)c(O)c(C)c1CC1=NCCN1
2. N=c1nc(N2CCCCC2)cc(N)n1O
3. C#CC[N+](C)([O-])C(C)Cc1ccccc1 (configuration not stated)
4. COc1ccc(OC)c(CCN)c1
5. Cc1cc(=O)n(-c2ccccc2)n1C

1: 6.99; 2: 4.88; 3: 5.33; 4: 4.43; 5: 4.63

----------
Please provide measured LC retention time for the entries that follow.
Experiment: Thermo Scientific Acclaim RSLC 120 C18, 100 × 2.1 mm, 2.2 µm, 30 °C; A: 90% water + 10% methanol + 0.01% formic acid + 5 mM ammonium formate; B: methanol + 0.01% formic acid + 5 mM ammonium formate; gradient (min/%B) 0.1/1 3/39 14/99.9 16/99.9
Conditions: stereoisomer not certain
Numbers only, in min.

Record excerpt, results attached:
{"columns": ["COMPOUND", "MEAS VALUE"],
 "data": [
  ["Cc1ccc(C(CCN(C)C)c2ccccc2)cc1 (centres undefined)", 7.47],
  ["NS(=O)(=O)Cc1noc2ccccc12", 4.53],
  ["CCN(CC)CC(=O)Nc1c(C)cccc1C(=O)OC", 4.59],
  ["COc1ccccc1OCC(O)COC(N)=O (centres undefined)", 5.21],
  ["Nc1nc(N)nc(NC2CC2)n1", 2.78],
  ["COc1cc(NS(=O)(=O)c2ccc(N)cc2)nc(OC)n1", 5.6]
]}

Go through the items and report each one's LC retention time.
1. O=C(c1cccc2ccccc12)c1cn(CCCCO)c2ccccc12
2. CCNc1nc(NCC)nc(SC)n1
3. CCCCCCCCCc1ccc(OCCO)cc1
4. CC(C)=CC1C(C(=O)OCc2coc(Cc3ccccc3)c2)C1(C)C (centres undefined)
5. N#CSCSc1nc2ccccc2s1
6. CCc1cccc(C)c1N1C(=O)COCC1C (centres undefined)

9.56
8.14
13.2
13.6
9.25
7.89

Go through the items and report each one's LC retention time.
1. CCC1C(=O)OCC1Cc1cncn1C (centres undefined)
2. CCNc1nc(NC(C)CC)nc(OC)n1 (centres undefined)
3. O=C(NC1CCN(CCc2c[nH]c3ccccc23)CC1)c1ccccc1
4. CC=CC(=O)Oc1c(C(C)CCCCCC)cc([N+](=O)[O-])cc1[N+](=O)[O-] (centres undefined)
5. O=C1CN=C(c2ccccc2)c2cc([N+](=O)[O-])ccc2N1
6. COCCOc1ccccc1S(=O)(=O)NC(=O)Nc1nc(OC)nc(OC)n1

1. 2.74
2. 8.79
3. 5.37
4. 13.1
5. 7.79
6. 6.36
